Target: rat TRPV1 (Rattus norvegicus)
Construct: expressed in transfected cells; host or cells: HEK293
Sequence (O35433 whole entry): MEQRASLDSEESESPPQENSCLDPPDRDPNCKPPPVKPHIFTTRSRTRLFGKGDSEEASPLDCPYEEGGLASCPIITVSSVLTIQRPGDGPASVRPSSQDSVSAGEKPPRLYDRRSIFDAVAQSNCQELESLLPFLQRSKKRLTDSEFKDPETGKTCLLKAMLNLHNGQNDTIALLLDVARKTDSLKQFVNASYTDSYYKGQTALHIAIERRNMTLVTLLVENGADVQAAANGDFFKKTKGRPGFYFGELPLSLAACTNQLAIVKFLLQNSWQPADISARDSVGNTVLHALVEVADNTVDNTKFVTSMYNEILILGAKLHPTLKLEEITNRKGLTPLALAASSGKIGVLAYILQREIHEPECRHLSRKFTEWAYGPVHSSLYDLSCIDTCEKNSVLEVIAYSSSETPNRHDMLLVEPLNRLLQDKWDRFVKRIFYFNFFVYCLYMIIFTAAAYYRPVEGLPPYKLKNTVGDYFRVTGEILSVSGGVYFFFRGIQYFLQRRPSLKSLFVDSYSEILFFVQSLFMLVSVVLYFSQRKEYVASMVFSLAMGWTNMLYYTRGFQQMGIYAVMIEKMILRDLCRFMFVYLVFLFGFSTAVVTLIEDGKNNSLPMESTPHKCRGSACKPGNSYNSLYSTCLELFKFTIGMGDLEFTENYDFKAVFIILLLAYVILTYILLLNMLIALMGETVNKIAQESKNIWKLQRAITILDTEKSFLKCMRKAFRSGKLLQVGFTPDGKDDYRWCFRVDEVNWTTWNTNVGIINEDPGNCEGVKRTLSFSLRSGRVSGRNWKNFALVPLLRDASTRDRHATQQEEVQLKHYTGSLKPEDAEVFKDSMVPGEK
Assay: Block of capsaicin-induced Ca2+ influx, rat assay (rTRPV1/HEK293, FLIPR)
Type: cell-based
Settings: HEK293 cells transfected with rat TRPV1; capsaicin challenge; mean; > value = solubility limit in assay medium; read-out: Rat IC50
Where a name gives a salt, the structure may show the parent alone.
reported_property: IC50
Kindly format the answer as number then unit.

QUERY: Which IC50 is listed for `CS(=O)(=O)c1ccc(Nc2ncnc3sc(Cc4c(Cl)cccc4Cl)nc23)cc1F` ?
RESULT: 183 nM

QUERY: Which IC50 is listed for `CC(C)(C#N)c1ccc(Nc2ncnc3sc(Cc4c(Cl)cccc4Cl)nc23)cc1` ?
RESULT: 56 nM

QUERY: Which IC50 is listed for FC(F)(F)c1ccc(Nc2nc(NCC3CCCNC3)nc3sc(Cc4c(Cl)cccc4Cl)nc23)cc1 (centres unmarked) [Example 91, hydrochloride salt] ?
RESULT: 3160 nM

QUERY: Which IC50 is listed for `FC(F)(F)c1ccc(Nc2ncnc3sc(Cc4ccccc4)nc23)cn1` ?
RESULT: 111 nM

QUERY: Which IC50 is listed for `FC(F)(F)c1ccc(Nc2nc(NC3CC3)nc3sc(Cc4c(Cl)cccc4Cl)nc23)cc1` ?
RESULT: 215 nM

QUERY: Which IC50 is listed for `COc1ccc(Nc2ncnc3sc(Cc4c(Cl)cccc4Cl)nc23)cc1` ?
RESULT: 241 nM

QUERY: Which IC50 is listed for `CC(C)(C(N)=O)c1ccc(Nc2ncnc3sc(Cc4c(Cl)cccc4Cl)nc23)cc1` ?
RESULT: 4490 nM

QUERY: Which IC50 is listed for `CC(C)(C)c1ccc(Nc2ncnc3sc(Cc4ccccc4C(F)(F)F)nc23)cc1` ?
RESULT: 6 nM

QUERY: Which IC50 is listed for `FC(F)(F)c1ccc(Nc2ncnc3sc(Cc4c(Cl)cccc4Cl)nc23)cc1` ?
RESULT: 30 nM

QUERY: Which IC50 is listed for `CS(=O)(=O)c1ccc(Nc2ncnc3sc(Cc4ccccc4)nc23)cc1` ?
RESULT: 1460 nM

QUERY: Which IC50 is listed for `COC(=O)C(C)(C)c1ccc(Nc2ncnc3sc(Cc4c(Cl)cccc4Cl)nc23)cc1` ?
RESULT: 74 nM

QUERY: Which IC50 is listed for `N#Cc1ccccc1Cc1nc2c(Nc3ccc(C(F)(F)F)cc3)ncnc2s1` ?
RESULT: 62 nM

QUERY: Which IC50 is listed for `FC(F)(F)c1ccccc1Nc1ncnc2sc(Cc3c(Cl)cccc3Cl)nc12` ?
RESULT: 1790 nM

QUERY: Which IC50 is listed for `O=S(=O)(c1ccc(Nc2ncnc3sc(Cc4c(Cl)cccc4Cl)nc23)cc1)N1CCOCC1` ?
RESULT: 54 nM

QUERY: Which IC50 is listed for FC(F)(F)c1ccc(Nc2nc(N3CCN(C4CCCC4)CC3)nc3sc(Cc4c(Cl)cccc4Cl)nc23)cc1 [Example 76, trifluoroacetic acid salt] ?
RESULT: 74 nM

QUERY: Which IC50 is listed for `Cc1cccc(C)c1Cc1nc2c(Nc3ccccc3)ncnc2s1` ?
RESULT: 2860 nM

QUERY: Which IC50 is listed for `FC(F)(F)Oc1ccc(Nc2ncnc3sc(Cc4c(Cl)cccc4Cl)nc23)cc1` ?
RESULT: 44 nM
